# system_name: N. gonorrhoeae PBP2 (Neisseria gonorrhoeae, UniProt P08149)
# Construct: made in house
# Sequence (P08149 whole entry): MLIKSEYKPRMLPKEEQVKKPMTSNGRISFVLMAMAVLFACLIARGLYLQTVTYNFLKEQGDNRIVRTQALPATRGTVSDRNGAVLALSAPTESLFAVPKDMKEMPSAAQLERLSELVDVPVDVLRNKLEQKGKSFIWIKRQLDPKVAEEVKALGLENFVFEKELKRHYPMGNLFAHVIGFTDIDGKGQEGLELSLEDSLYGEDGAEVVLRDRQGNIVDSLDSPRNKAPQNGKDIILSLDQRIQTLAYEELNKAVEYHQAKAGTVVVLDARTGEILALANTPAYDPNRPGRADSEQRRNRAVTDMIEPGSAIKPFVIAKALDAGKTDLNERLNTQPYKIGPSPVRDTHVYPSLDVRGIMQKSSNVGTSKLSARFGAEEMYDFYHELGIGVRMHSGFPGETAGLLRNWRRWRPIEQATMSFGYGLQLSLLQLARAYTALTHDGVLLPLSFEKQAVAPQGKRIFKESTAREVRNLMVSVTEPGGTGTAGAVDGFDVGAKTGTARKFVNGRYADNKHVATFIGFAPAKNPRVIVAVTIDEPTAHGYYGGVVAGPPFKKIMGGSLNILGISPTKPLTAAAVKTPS
# protocol_description: Bocillin-FL fluorescence polarization competition binding assay, N. gonorrhoeae PBP2
# protocol_conditions: fluorescence polarization competition binding assay using Bocillin-FL; read-out: N. gonorrhoeae PBP2 Potency
Record form. Attribute: EC50. Fill in for each entry.

Recorded EC50, per entry:
[[record]]
compound = "CCN1CCN(C(=O)N[C@@H](C(=O)N[C@H]2Cc3cccc(C(=O)O)c3OB2O)c2c(O)cc(O)cc2F)C(=O)C1=O (single isomer, unassigned)"
result = "> 100 µM"

[[record]]
compound = "NCCN1CCN(C(=O)N[C@H](C(=O)N[C@H]2Cc3cccc(C(=O)O)c3OB2O)c2ccc(O)c([N+](=O)[O-])c2)C(=O)C1=O (single isomer, unassigned)"
result = "> 100 µM"

[[record]]
compound = "NCCN1CCN(C(=O)N[C@H](C(=O)N[C@H]2Cc3cccc(C(=O)O)c3OB2O)c2ccc(O)c(Cl)c2F)C(=O)C1=O (single isomer, unassigned)"
result = "10 to 30 µM"


Record EC50 for all entries; do not skip any.
1. CCN1CCN(C(=O)N[C@H](C(=O)N[C@H]2Cc3cccc(C(=O)O)c3OB2O)c2ccc(C(=O)O)c(F)c2)C(=O)C1=O (single isomer, unassigned)
2. NCCN1CCN(C(=O)N[C@@H](C(=O)N[C@H]2Cc3cccc(C(=O)O)c3OB2O)c2cc(F)c(O)c(F)c2F)C(=O)C1=O (single isomer, unassigned)
3. CCN1CCN(C(=O)NC(C(=O)N[C@H]2Cc3cccc(C(=O)O)c3OB2O)c2cccc(O)c2)C(=O)C1=O (stereo partly shown)
4. NCCN1CCN(C(=O)N[C@@H](C(=O)N[C@H]2Cc3ccc(F)c(C(=O)O)c3OB2O)c2cc(F)c(O)c(O)c2Cl)C(=O)C1=O (single isomer, unassigned)
5. CCN1CCN(C(=O)N[C@@H](C(=O)N[C@H]2Cc3cccc(C(=O)O)c3OB2O)c2ccc(C(=O)O)c(F)c2Cl)C(=O)C1=O (single isomer, unassigned)

**Result**
1: < 10 µM; 2: < 10 µM; 3: < 10 µM; 4: > 100 µM; 5: < 10 µM

Record EC50 for all entries; do not skip any.
1. NCCN1CCN(C(=O)N[C@H](C(=O)N[C@H]2Cc3cccc(C(=O)O)c3OB2O)c2ccc(O)cc2Cl)C(=O)C1=O (single isomer, unassigned)
2. NCCCN1CCN(C(=O)N[C@@H](C(=O)N[C@H]2Cc3cccc(C(=O)O)c3OB2O)c2c(O)cc(O)cc2F)C(=O)C1=O (single isomer, unassigned)
3. CCN1CCN(C(=O)N[C@H](C(=O)N[C@H]2Cc3cccc(C(=O)O)c3OB2O)c2ccc(C(=O)O)cc2)C(=O)C1=O (single isomer, unassigned)
4. CCN1CCN(C(=O)NC(C(=O)N[C@H]2Cc3cccc(C(=O)O)c3OB2O)c2cccc(C(=O)O)c2)C(=O)C1=O (stereo partly shown)
5. CCN1CCN(C(=O)N[C@H](C(=O)N[C@H]2Cc3cccc(C(=O)O)c3OB2O)c2cc(Cl)c(O)cc2Cl)C(=O)C1=O (single isomer, unassigned)
6. CCN1CCN(C(=O)N[C@@H](C(=O)N[C@H]2Cc3cccc(C(=O)O)c3OB2O)c2ccc(C(=O)O)c(F)c2F)C(=O)C1=O (single isomer, unassigned)
7. CCN1CCN(C(=O)NC(C(=O)N[C@H]2Cc3cccc(C(=O)O)c3OB2O)c2ccc(C(N)=O)c(O)c2)C(=O)C1=O (stereo partly shown)
8. NCCN1CCN(C(=O)N[C@H](C(=O)N[C@H]2Cc3cccc(C(=O)O)c3OB2O)c2ccc(C(=O)O)cc2)C(=O)C1=O (single isomer, unassigned)

**Result**
10 to 30 µM
10 to 30 µM
< 10 µM
< 10 µM
< 10 µM
< 10 µM
< 10 µM
< 10 µM

Record EC50 for all entries; do not skip any.
1. CCN1CCN(C(=O)NC(C(=O)N[C@H]2Cc3cccc(C(=O)O)c3OB2O)c2cc(C#N)c(OC)cc2F)C(=O)C1=O (stereo partly shown)
2. CCN1CCN(C(=O)NC(C(=O)N[C@H]2Cc3cccc(C(=O)O)c3OB2O)c2ccc(C(=O)O)c(O)c2)C(=O)C1=O (stereo partly shown)
3. CCN1CCN(C(=O)N[C@H](C(=O)N[C@H]2Cc3cccc(C(=O)O)c3OB2O)c2ccc(C(=O)O)c(Cl)c2)C(=O)C1=O (single isomer, unassigned)
4. CS(=O)(=O)N1CCN(C(=O)N[C@@H](C(=O)N[C@H]2Cc3ccc(F)c(C(=O)O)c3OB2O)c2cc(F)c(O)c(O)c2Cl)C1=O (single isomer, unassigned)
5. CCN1CCN(C(=O)N[C@H](C(=O)N[C@H]2Cc3cccc(C(=O)O)c3OB2O)c2ccc(C(=O)O)cc2Cl)C(=O)C1=O (single isomer, unassigned)
6. NCCN1CCN(C(=O)NC(C(=O)N[C@H]2Cc3cccc(C(=O)O)c3OB2O)c2c(F)cc(O)cc2Cl)C(=O)C1=O (stereo partly shown)

**Result**
["10 to 30 µM", "< 10 µM", "< 10 µM", "10 to 30 µM", "10 to 30 µM", "< 10 µM"]
